- Procedure Summary: NBI-750142 concentration in cynomolgus monkey plasma by LC-MS/MS
- Type: in vivo, cynomolgus monkeys (Macaca fascicularis)
- Run Parameters: cynomolgus monkey, intravenous, 0.26 mg/kg, GC786, 0.26 mg/kg i.v.
Metric Name: concentration at 120 min (ng/mL)
Record the value in ng/mL, omitting the unit from your answer.

## Task What value of concentration at 120 min has been recorded for this entry: COc1cc2c(cc1OC)[C@H]1CN(C)[C@H](CC(C)(C)C)CN1CC2
## Result 13.4

* * *

- Procedure Summary: NBI-750142 concentration in cynomolgus monkey plasma by LC-MS/MS
- Format: in vivo, cynomolgus monkeys (Macaca fascicularis)
- Run Parameters: cynomolgus monkey, intravenous, 0.084 mg/kg, EC865, 0.084 mg/kg i.v.
Metric Name: concentration at 1 min (ng/mL)
Record the value in ng/mL, omitting the unit from your answer.

## Task What value of concentration at 1 min has been recorded for this entry: COc1cc2c(cc1OC)[C@H]1CN(C)[C@H](CC(C)(C)C)CN1CC2
## Result 108

* * *

- Procedure Summary: NBI-750142 concentration in cynomolgus monkey plasma by LC-MS/MS
- Type: in vivo, cynomolgus monkeys (Macaca fascicularis)
- Run Parameters: cynomolgus monkey, intravenous, 0.78 mg/kg, GC786, 0.78 mg/kg i.v.
Metric Name: concentration at 1 min (ng/mL)
Record the value in ng/mL, omitting the unit from your answer.

## Task What value of concentration at 1 min has been recorded for this entry: COc1cc2c(cc1OC)[C@H]1CN(C)[C@H](CC(C)(C)C)CN1CC2
## Result 186

* * *

- Procedure Summary: NBI-750142 concentration in cynomolgus monkey plasma by LC-MS/MS
- Assay type: in vivo, cynomolgus monkeys (Macaca fascicularis)
- Run Parameters: cynomolgus monkey, intravenous, 0.084 mg/kg, EC865, 0.084 mg/kg i.v.
Metric Name: concentration at 90 min (ng/mL)
Record the value in ng/mL, omitting the unit from your answer.

## Task What value of concentration at 90 min has been recorded for this entry: COc1cc2c(cc1OC)[C@H]1CN(C)[C@H](CC(C)(C)C)CN1CC2
## Result 5.91

* * *

- Procedure Summary: NBI-750142 concentration in cynomolgus monkey plasma by LC-MS/MS
- Type: in vivo, cynomolgus monkeys (Macaca fascicularis)
- Run Parameters: cynomolgus monkey, intravenous, 0.52 mg/kg, EC865, 0.52 mg/kg i.v.
Metric Name: concentration at 120 min
Units required after the number.

## Task What value of concentration at 120 min has been recorded for this entry: COc1cc2c(cc1OC)[C@H]1CN(C)[C@H](CC(C)(C)C)CN1CC2 [NBI-750142]
## Result 36.2 ng/mL

* * *

- Procedure Summary: NBI-750142 concentration in cynomolgus monkey plasma by LC-MS/MS
- Format: in vivo, cynomolgus monkeys (Macaca fascicularis)
- Run Parameters: cynomolgus monkey, intravenous, 0.026 mg/kg, GC786, 0.026 mg/kg i.v.
Metric Name: concentration at 180 min (ng/mL)
Record the value in ng/mL, omitting the unit from your answer.

## Task What value of concentration at 180 min has been recorded for this entry: COc1cc2c(cc1OC)[C@H]1CN(C)[C@H](CC(C)(C)C)CN1CC2
## Result 3.1

This collection of values is drawn from patent US20250064990A1.
